- test-target: Acetylcholinesterase (AChE) (Electrophorus electricus, UniProt O42275)
- Sequence (O42275 24-633): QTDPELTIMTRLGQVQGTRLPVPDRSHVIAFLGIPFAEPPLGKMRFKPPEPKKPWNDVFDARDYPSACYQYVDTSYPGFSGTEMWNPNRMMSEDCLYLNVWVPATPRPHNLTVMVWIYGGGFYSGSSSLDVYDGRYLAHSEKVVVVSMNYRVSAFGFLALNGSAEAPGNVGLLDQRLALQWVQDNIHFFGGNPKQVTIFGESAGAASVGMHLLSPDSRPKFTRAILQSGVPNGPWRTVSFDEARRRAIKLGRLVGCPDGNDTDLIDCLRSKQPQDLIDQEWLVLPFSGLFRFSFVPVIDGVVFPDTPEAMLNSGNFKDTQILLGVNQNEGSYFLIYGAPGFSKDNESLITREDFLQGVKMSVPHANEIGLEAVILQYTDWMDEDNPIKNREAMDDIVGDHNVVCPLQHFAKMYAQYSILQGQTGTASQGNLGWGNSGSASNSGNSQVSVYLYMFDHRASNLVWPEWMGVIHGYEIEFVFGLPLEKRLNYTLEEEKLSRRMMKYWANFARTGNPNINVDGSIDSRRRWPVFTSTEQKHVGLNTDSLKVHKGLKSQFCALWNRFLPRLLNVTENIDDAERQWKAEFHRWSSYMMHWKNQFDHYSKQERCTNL
pIC50: −log10 of the molar value.
Threshold rule: pIC50 greater than or equal to 6 is MET; below that, NOT MET.

[ask] Exam item: decide whether the reported pIC50 for CC(C)=CCC/C(C)=C/Cc1c([C@@H]2CC(=O)c3c(O)cc(O)cc3O2)ccc(O)c1O is at least 6.
[reply] NOT MET

[ask] Exam item: decide whether the reported pIC50 for CCCC/C=C\C/C=C\CCCCCCCCc1cccc(O)c1C(=O)O [Compound 5, 6-heptadeca-9Z,12Z-dienyl salicylic acid] is at least 6.
[reply] MET

[ask] Exam item: decide whether the reported pIC50 for CC(C)=CCCC(C)=CCc1c(O)cc2c(c1O)C(=O)CC(c1cc(O)cc(O)c1)O2 (centres unmarked) is at least 6.
[reply] NOT MET

[ask] Exam item: decide whether the reported pIC50 for CC/C=C\C/C=C\C/C=C\CCCCCCCc1cccc(O)c1C(=O)O is at least 6.
[reply] NOT MET
